Below, each entry is listed with its recorded melting point.

Example entries and their recorded answers appear below.
* O=C1N(Cc2ccc(OCc3ccccc3)cc2)c2ccccc2C12COc1cc3c(cc12)CCO3 (centres undefined) | 169 to 170 °C
* CCN1CCNS(=O)(=O)c2cc(Oc3ccccc3)ccc21 | 138 °C
* O=[N+]([O-])c1cc(-c2nc3ccccc3[nH]2)cc(O)c1O | > 300 °C

Provide only the value of recorded melting point for "Cc1cc(F)ccc1-c1nc(NCCNC(=O)Nc2cccc(F)c2)nc2c1ccc(=O)n2-c1c(F)cccc1F"
131 to 144 °C

---

Overview of reported melting point across a group of molecules:

Some solved cases for reference:
• COCCN(CCOC)c1ccc(NC(=O)Nc2ccc(Oc3ccncc3)cc2)cc1C(F)(F)F = 64.5 to 65 °C
• O=[N+]([O-])C(Br)(Br)CCO = 22 to 25 °C
• CS(=O)(=O)c1ccc(CCl)cc1 = 102 °C
• Nc1cc(C(=O)O)cc(OCc2ccccc2)c1C(=O)c1ccccc1 = 216 to 218 °C
• Fc1ccc(COc2ccc(CS)cc2)cc1 = 77 to 80 °C
• CN(C)CCCC1(O)c2ccccc2CCc2c(C3(C)OCCO3)cccc21 (centres undefined) = 122 to 124 °C
• N#CSCC(=O)c1ccc(Br)cc1 = 148 to 149 °C
• O=C(O)Cn1c(=O)c(=O)[nH]c2cc(Br)ccc21 = > 320 °C

Identify the reported melting point for the following entry. "CS(=O)(=O)c1ccc(Cc2ccc3ccccc3c2O)cc1"
144 to 145 °C
